Test system: Plasmodium falciparum
protocol_details: Antiplasmodial activity against Plasmodium falciparum K1 assessed as growth inhibition measured after 72 hrs by SYBR green dye based assay
Type: functional, organism-based
study_conditions: K1, 72 h
pIC50: −log10 of the molar value.
Values of pIC50 greater than or equal to 7 map to rule met; values below map to rule not met.

Illustrative cases are given below, each with its answer.
In [3]: df
Out[3]:
                                   compound       target_or_system    class_name
0  CCC(C)C(CN1CCN(CC)CC1)Nc1ccnc2cc(Cl)ccc12 (stereo unspecified)  Plasmodium falciparum  rule not met
1  CC(C)CC(CN1CCN(Cc2ccc3c(c2)OCO3)CC1)Nc1ccnc2cc(Cl)ccc12 (stereo unspecified)  Plasmodium falciparum  rule not met
2  CCN1CCN(CC(CCSC)Nc2ccnc3cc(Cl)ccc23)CC1 (stereo unspecified)  Plasmodium falciparum  rule not met

Next, consider the following compound.
In plain terms: is recorded pIC50 at least 7 for `Clc1ccc2c(NCCN3CCN(Cc4ccc5c(c4)OCO5)CC3)ccnc2c1` ?
rule met

###

protocol_details: Cytotoxicity against Chinese hamster CHO cells assessed as reduction in cell viability by MTT assay
Type: toxicity, cell-based
study_conditions: Chinese hamster (Cricetulus griseus)
pIC50 overview
pIC50 field: float, defined as -log10 of concentration (mol/L).

These recorded examples may help you get a feel for the data.
In [3]: df
Out[3]:
                                     smiles  metric_name  numeric_value
0  COc1ccc(/C=C/C(=O)c2ccc(S(=O)(=O)NCCCNc3cncc4cc(Cl)ccc34)cc2)c(OC)c1OC        pIC50           4.65
1  O=C(/C=C/c1ccc(OC(F)(F)F)cc1)c1ccc(S(=O)(=O)NCCCNc2cncc3cc(Cl)ccc23)cc1        pIC50           4.36
2  O=C(/C=C/c1cc(F)ccc1F)c1ccc(S(=O)(=O)NCCCNc2cncc3cc(Cl)ccc23)cc1        pIC50           4.36
3  COc1ccc(/C=C/C(=O)c2ccc(S(=O)(=O)NCCNc3cncc4cc(Cl)ccc34)cc2)cc1        pIC50           4.76
4  O=C(/C=C/c1ccc(F)cc1)c1ccc(S(=O)(=O)NCCCNc2cncc3cc(Cl)ccc23)cc1        pIC50           4.83

Could you share which pIC50 value was measured for `O=C(/C=C/c1ccccc1Br)c1ccc(S(=O)(=O)NCCCNc2cncc3cc(Cl)ccc23)cc1` ?
4.36

###

IC50 at 24 h overview
protocol_details: Cytotoxicity against African green monkey Vero cells assessed as reduction in cell viability incubated for 24 hrs by fluorescence based analysis
Format: toxicity
study_conditions: African green monkey (Chlorocebus sabaeus)
Give the value in µM but do not write µM after it.

                                     smiles   metric_name  unit_text  numeric_value
0  O=C1c2ccc(N3CCCCC3)cc2C(=O)N1CCCNc1ccnc2cc(Cl)ccc12  IC50 at 24 h         µM           55.8

Could you share which IC50 at 24 h value was measured for `O=C1c2cccc(N3CCOCC3)c2C(=O)N1CCCCNc1ccnc2cc(Cl)ccc12` ?
108

###

protocol_details: Cytotoxicity against African monkey Vero cells assessed as reduction in cell viability incubated for 72 hrs by MTT assay
Type: toxicity, cell-based
study_conditions: chlorocebus sabaeus
Kindly apply the following: 1 if CC50 at 72 h is less than 40 µM, -1 in every other case.

Illustrative cases are given below, each with its answer.
                                   compound  class_name
0  O=C(Cn1cc(COc2ccc(Cl)cc2)nn1)NCCNc1ccnc2cc(Cl)ccc12           1
1  O=C(Cn1cc(COc2ccc(Cl)cc2)nn1)NCCCCNc1ccnc2cc(Cl)ccc12           1
2  Cc1ccc(OCc2cn(CC(=O)NCCCNc3ccnc4cc(Cl)ccc34)nn2)cc1          -1
3  Cc1ccc(OCc2cn(CC(=O)NCCCCNc3ccnc4cc(Cl)ccc34)nn2)cc1           1
4  O=C(Cn1cc(COc2ccc(Br)cc2)nn1)NCCCCCCNc1ccnc2cc(Cl)ccc12          -1

Consider CCN(CC)CCCC(C)Nc1ccnc2cc(Cl)ccc12 (stereo not given) [CHLOROQUINE] . Does its CC50 at 72 h lie strictly below 40 µM?
-1

###

System: Plasmodium falciparum
protocol_details: Antimalarial activity against chloroquine-sensitive Plasmodium falciparum 3D7 assessed as reduction in parasite growth incubated for 36 hrs by Giemsa staining based microscopic analysis
Format: functional, organism-based
study_conditions: 3D7, 36 h
metric_name: IC50

In [3]: df
Out[3]:
                                   compound       target_or_system  result
0  O=Cc1ccc(OCc2cn(CC(=O)NCCCNc3ccnc4cc(Cl)ccc34)nn2)cc1  Plasmodium falciparum  910 nM
1  O=C(Cn1cc(-c2ccccc2)nn1)NCCCNc1ccnc2cc(Cl)ccc12  Plasmodium falciparum  137 nM

// moving on: another record for IC50
Could you share which IC50 value was measured for C[C@H]1[C@@H](O)O[C@@H]2O[C@@]3(C)CC[C@H]4[C@H](C)CC[C@@H]1[C@@]24OO3 [ARTENIMOL] ?
2 nM

###

protocol_details: Cytotoxicity against African green monkey Vero cells assessed as reduction in cell viability incubated for 24 hrs by MTT assay
Type: toxicity, cell-based
study_conditions: African green monkey (Chlorocebus sabaeus)
Kindly apply the following: YES if IC50 at 24 h is less than 100 µM, NO in every other case.

Illustrative cases are given below, each with its answer.
                                     smiles  class_name
0  O=C(CN1C(=O)c2ccc(N3CCN(CCO)CC3)cc2C1=O)NCCCCNc1ccnc2cc(Cl)ccc12          NO
1  O=C(CN1C(=O)c2ccc(F)cc2C1=O)NCCCCCCNc1ccnc2cc(Cl)ccc12          NO
2  O=C(CN1C(=O)c2ccccc2C1=O)NCCCCCCNc1ccnc2cc(Cl)ccc12          NO
3  CCN(CC)c1ccc2c(c1)C(=O)N(CCC(=O)NCCCCNc1ccnc3cc(Cl)ccc13)C2=O         YES

Consider `O=C(CN1C(=O)c2ccc(N3CCOCC3)cc2C1=O)NCCCCNc1ccnc2cc(Cl)ccc12` . Does its IC50 at 24 h lie strictly below 100 µM?
NO

Please give the result for `O=C(CCN1C(=O)c2ccccc2C1=O)NCCCCCCNc1ccnc2cc(Cl)ccc12` too.
YES

Please give the result for `O=C(CCN1C(=O)c2ccc(F)cc2C1=O)NCCCCNc1ccnc2cc(Cl)ccc12` too.
NO

###

protocol_details: Cytotoxicity against African green monkey Vero cells assessed as reduction in cell viability incubated for 48 hrs by MTT assay
Type: toxicity, cell-based
study_conditions: chlorocebus sabaeus
Kindly apply the following: Criterion met if CC50 at 48 h is less than 90 µM, Criterion not met in every other case.

>>> df
                                   compound         class_name
0  C[C@@H]1CC[C@H]2[C@@H](C)C(=O)O[C@@H]3O[C@@]4(C)CC[C@@H]1[C@]32OO4 [ARTEMISININ]  Criterion not met
1  CCOC(=O)c1nn(CCNc2ccnc3cc(Cl)ccc23)c2c1C(c1ccccc1)C(C#N)=C(N)O2 (stereo unspecified)  Criterion not met
2  CCOC(=O)c1nn(CCNc2ccnc3cc(Cl)ccc23)c2c1C(c1ccc(CC)cc1)C(C#N)=C(N)O2 (stereo unspecified)      Criterion met
3  CCOC(=O)c1nn(CCNc2ccnc3cc(Cl)ccc23)c2c1C(c1ccc(O)cc1)C(C#N)=C(N)O2 (stereo unspecified)      Criterion met
4  CCOC(=O)c1nn(CCNc2ccnc3cc(Cl)ccc23)c2c1C(C(C)C)C(C#N)=C(N)O2 (stereo unspecified)      Criterion met

Consider CCOC(=O)c1nn(CCNc2ccnc3cc(Cl)ccc23)c2c1C(c1ccco1)C(C#N)=C(N)O2 (stereo unspecified) . Does its CC50 at 48 h lie strictly below 90 µM?
Criterion met

###

Tested on: Hemozoin
protocol_details: Inhibition of Beta-hematin formation in Plasmodium falciparum K1 by spectrophotometric analysis
metric_name: pIC50
pIC50 field: float, defined as -log10 of concentration (mol/L).

>>> df
                                     smiles  target_or_system  numeric_value
0  Clc1ccc2c(NCCn3cncc3-c3cccc4ccccc34)ccnc2c1          Hemozoin           6.04
1      Clc1ccc2c(NCCn3cncc3-c3ccco3)ccnc2c1          Hemozoin           6.01
2  Clc1ccc2c(NCCn3cncc3-c3cccc(Oc4ccccc4)c3)ccnc2c1          Hemozoin           5.58
3       Clc1ccc2c(NCCn3cncc3C3CCCC3)ccnc2c1          Hemozoin           6.47
4  Clc1ccc2c(NCCn3cncc3-c3ccc4c(c3)OCCO4)ccnc2c1          Hemozoin           5.62

Could you share which pIC50 value was measured for `CC(C)c1ccc(-c2cncn2CCNc2ccnc3cc(Cl)ccc23)cc1` ?
6.54

Please give the result for `CC(C)(C)c1cncn1CCNc1ccnc2cc(Cl)ccc12` too.
6.30

Please give the result for `Clc1ccc2c(NCCn3cncc3-c3ccc[nH]3)ccnc2c1` too.
5.94

Please give the result for `Clc1ccc2c(NCCn3cncc3-c3c[nH]c4ccccc34)ccnc2c1` too.
5.77

Please give the result for `Oc1ccc(-c2cncn2CCNc2ccnc3cc(Cl)ccc23)cc1` too.
5.30

Please give the result for `Clc1ccc2c(NCCn3cncc3-c3ccc4ccccc4n3)ccnc2c1` too.
5.88
